These measurements were taken from ChEMBL document CHEMBL5143685.

- Test system: Klebsiella pneumoniae
- Measurement notes: Antibacterial activity against Klebsiella pneumoniae ATCC 700603 assessed as inhibition of bacterial growth measured after 18 hrs by resazurin dye based analysis
- Type: functional
Below is a list of entries, each paired with its recorded MIC value.

Task: So what does the record say about MIC for "COC(=O)[C@@]1(C)CCC[C@]2(C)c3cc(OC(=O)CCCNCCCCCCCNCCCNC(=O)Oc4ccc5c(c4)[C@@]4(C)CCC[C@](C)(C(=O)OC)[C@@H]4CC5)ccc3CC[C@@H]12.O=C(O)C(F)(F)F.O=C(O)C(F)(F)F" ?
Output: > 29.1 µM

Task: So what does the record say about MIC for "C[C@]1(C(=O)NCCCNCCCCN)CCC[C@]2(C)c3cc(O)ccc3CC[C@@H]12" ?
Output: > 50.8 µM

Task: So what does the record say about MIC for "COC(=O)[C@@]1(C)CCC[C@]2(C)c3cc(OC(=O)CCCNCCCCCCNCCCNC(=O)Oc4ccc5c(c4)[C@@]4(C)CCC[C@](C)(C(=O)OC)[C@@H]4CC5)ccc3CC[C@@H]12.O=C(O)C(F)(F)F.O=C(O)C(F)(F)F" ?
Output: > 29.4 µM

Task: So what does the record say about MIC for "C[C@]1(C(=O)NCCCNCCCCCCCCCCCCN)CCC[C@]2(C)c3cc(O)ccc3CC[C@@H]12.O=C(O)C(F)(F)F.O=C(O)C(F)(F)F" ?
Output: > 43.1 µM

Task: So what does the record say about MIC for "C[C@]1(C(=O)NCCCNCCCCN)CCC[C@]2(C)c3cc(OC(=O)NCCCNCCCCN)ccc3CC[C@@H]12.O=C(O)C(F)(F)F.O=C(O)C(F)(F)F.O=C(O)C(F)(F)F.O=C(O)C(F)(F)F" ?
Output: > 31.1 µM

Continuing:
Task: So what does the record say about MIC for "C[C@@]12CCC[C@](C)(C(=O)O)[C@H]1CCc1ccc(OC(=O)CCCNCCCCNCCCNC(=O)Oc3ccc4c(c3)[C@@]3(C)CCC[C@](C)(C(=O)O)[C@@H]3CC4)cc12.O=C(O)C(F)(F)F.O=C(O)C(F)(F)F" ?
Output: > 31 µM

Task: So what does the record say about MIC for "C[C@]1(C(=O)NCCCNCCCCCCCCCCN)CCC[C@]2(C)c3cc(O)ccc3CC[C@@H]12.O=C(O)C(F)(F)F.O=C(O)C(F)(F)F" ?
Output: > 44.8 µM

Task: So what does the record say about MIC for "C[C@]1(C(=O)NCCCNCCCCCCN)CCC[C@]2(C)c3cc(O)ccc3CC[C@@H]12.O=C(O)C(F)(F)F.O=C(O)C(F)(F)F" ?
Output: > 48.6 µM

###

Below is a list of entries, each paired with its recorded IC50 at 20 h value.
- Measurement notes: Cytotoxicity against HEK293 cells assessed as cell growth inhibition measured after 20 hrs by resazurin dye based assay
- Type: toxicity
- Condition description: human

Recorded IC50 at 20 h, per entry:
Task: So what does the record say about IC50 at 20 h for "C[C@]1(C(=O)NCCCNCCCCN)CCC[C@]2(C)c3cc(OC(=O)NCCCNCCCCN)ccc3CC[C@@H]12.O=C(O)C(F)(F)F.O=C(O)C(F)(F)F.O=C(O)C(F)(F)F.O=C(O)C(F)(F)F" ?
Output: > 31.1 µM

Task: So what does the record say about IC50 at 20 h for "CCCCCNC(=O)[C@@]1(C)CCC[C@]2(C)c3cc(OC(=O)CCCNCCCCCCCCCCCCNCCCNC(=O)Oc4ccc5c(c4)[C@@]4(C)CCC[C@](C)(C(=O)NCCCCC)[C@@H]4CC5)ccc3CC[C@@H]12.O=C(O)C(F)(F)F.O=C(O)C(F)(F)F" ?
Output: > 25 µM

Task: So what does the record say about IC50 at 20 h for "CCCCCNC(=O)[C@@]1(C)CCC[C@]2(C)c3cc(OC(=O)CCCNCCCCCCCCCCNCCCNC(=O)Oc4ccc5c(c4)[C@@]4(C)CCC[C@](C)(C(=O)NCCCCC)[C@@H]4CC5)ccc3CC[C@@H]12.O=C(O)C(F)(F)F.O=C(O)C(F)(F)F" ?
Output: > 25.5 µM

Continuing:
Task: So what does the record say about IC50 at 20 h for "C[C@]1(C(=O)NCCCNCCCCCCN)CCC[C@]2(C)c3cc(O)ccc3CC[C@@H]12.O=C(O)C(F)(F)F.O=C(O)C(F)(F)F" ?
Output: > 48.6 µM

Task: So what does the record say about IC50 at 20 h for "C[C@]1(C(=O)NCCCNCCCCCCCCCCCCN)CCC[C@]2(C)c3cc(O)ccc3CC[C@@H]12.O=C(O)C(F)(F)F.O=C(O)C(F)(F)F" ?
Output: 26.2 µM

Task: So what does the record say about IC50 at 20 h for "COC(=O)[C@@]1(C)CCC[C@]2(C)c3cc(OC(=O)CCCNCCCCCCCCCCCCNCCCNC(=O)Oc4ccc5c(c4)[C@@]4(C)CCC[C@](C)(C(=O)OC)[C@@H]4CC5)ccc3CC[C@@H]12.O=C(O)C(F)(F)F.O=C(O)C(F)(F)F" ?
Output: > 27.3 µM
